- target_desc: Dimer of Gag-Pol polyprotein [489-587] (Human immunodeficiency virus 1, UniProt P12497)
- Construct: 489-587
- protocol_summary: Protease Inhibition Assay
- assay_conditions: pH 4.7; 37 °C
readout: Ki
State the result as a value with its unit after it.

Reference set, count: 2
[
  {
    "molecule": "CC(C)(C)NC(=O)[C@@H]1C[C@H](Cl)CN1C(=O)[C@@H](O)[C@H](Cc1ccccc1)NC(=O)[C@H](CC(N)=O)NC(=O)c1cnc2ccccc2n1",
    "Ki": "4.7 nM"
  },
  {
    "molecule": "CC(C)(C)NC(=O)[C@@H]1C(O)CCN1C(=O)[C@@H](O)[C@H](Cc1ccccc1)NC(=O)[C@H](CC(N)=O)NC(=O)OCc1ccccc1 (stereo partly drawn)",
    "Ki": "0.1 nM"
  }
]

Ask: For the molecule shown here, CC(C)(C)NC(=O)[C@@H]1C[C@@H](O)CN1C(=O)[C@@H](O)[C@H](Cc1ccccc1)NC(=O)[C@H](CC(N)=O)NC(=O)OCc1ccccc1 , give the reported Ki.
Reply: 56 nM

----------
- target_desc: Dimer of Gag-Pol polyprotein [489-587] (Human immunodeficiency virus 1, UniProt P12497)
- Construct: 489-587
- protocol_summary: Protease Inhibition Assay
- assay_conditions: pH 4.7; 37 °C
Below: a set of entries, each annotated with reported log10 Ki.
Reminder: these figures are log10 of reported Ki, in nM before transformation.

[
  {
    "compound": "CC(C)(C)NC(=O)[C@@H]1C[C@H](Cl)CN1C(=O)[C@@H](O)[C@H](Cc1ccccc1)NC(=O)[C@H](CC(N)=O)NC(=O)c1noc2ccccc12",
    "readout": "log10 Ki",
    "reported_value": 1.45
  },
  {
    "compound": "CC(C)(C)NC(=O)[C@@H]1[C@@H](O)CCN1C(=O)[C@@H](O)[C@H](Cc1ccccc1)NC(=O)[C@H](CC(N)=O)NC(=O)OCc1ccccc1",
    "readout": "log10 Ki",
    "reported_value": 1.51
  },
  {
    "compound": "CC(C)(C)NC(=O)[C@@H]1CC(Cl)CN1C(=O)[C@@H](O)[C@H](Cc1ccccc1)NC(=O)[C@H](CC(N)=O)NC(=O)OCc1ccccc1 (some centres not stated)",
    "readout": "log10 Ki",
    "reported_value": 0.90
  }
]

Ask: For the compound shown here, CC(C)(C)NC(=O)[C@@H]1CC(N2CCOCC2)CN1C(=O)[C@@H](O)[C@H](Cc1ccccc1)NC(=O)[C@H](CC(N)=O)NC(=O)OCc1ccccc1 (some centres not stated) , give the reported log10 Ki.
Reply: 0.00

Ask: For the compound shown here, CC(C)(C)NC(=O)[C@@H]1CC(F)(F)CN1C(=O)[C@@H](O)[C@H](Cc1ccccc1)NC(=O)[C@H](CC(N)=O)NC(=O)OCc1ccccc1 , give the reported log10 Ki.
Reply: 1.54

Ask: For the compound shown here, COc1cccc2cc(C(=O)N[C@@H](CC(N)=O)C(=O)N[C@@H](Cc3ccccc3)[C@H](O)C(=O)N3C[C@@H](Cl)C[C@H]3C(=O)NC(C)(C)C)oc12 , give the reported log10 Ki.
Reply: 0.65

Ask: For the compound shown here, Cn1nc(C(=O)N[C@@H](CC(N)=O)C(=O)N[C@@H](Cc2ccccc2)[C@H](O)C(=O)N2C[C@@H](Cl)C[C@H]2C(=O)NC(C)(C)C)c2ccccc21 , give the reported log10 Ki.
Reply: 1.20

Ask: For the compound shown here, COc1ccc2[nH]c(C(=O)N[C@@H](CC(N)=O)C(=O)N[C@@H](Cc3ccccc3)[C@H](O)C(=O)N3C[C@@H](Cl)C[C@H]3C(=O)NC(C)(C)C)cc2c1 , give the reported log10 Ki.
Reply: 1.33

Ask: For the compound shown here, CC(C)(C)NC(=O)[C@@H]1CC(Br)CN1C(=O)[C@@H](O)[C@H](Cc1ccccc1)NC(=O)[C@H](CC(N)=O)NC(=O)OCc1ccccc1 (some centres not stated) , give the reported log10 Ki.
Reply: 1.35

Ask: For the compound shown here, CC(C)(C)NC(=O)[C@@H]1CC(Sc2ccccc2)CN1C(=O)[C@@H](O)[C@H](Cc1ccccc1)NC(=O)[C@H](CC(N)=O)NC(=O)OCc1ccccc1 (some centres not stated) , give the reported log10 Ki.
Reply: 2.10

Ask: For the compound shown here, CC(C)(C)NC(=O)[C@@H]1C[C@H](Cl)CN1C(=O)[C@@H](O)[C@H](Cc1ccccc1)NC(=O)[C@H](CC(N)=O)NC(=O)c1cc2cc(F)ccc2[nH]1 , give the reported log10 Ki.
Reply: 1.10

Ask: For the compound shown here, CC(C)(C)NC(=O)[C@@H]1CC(O)CN1C(=O)[C@@H](O)[C@H](Cc1ccccc1)NC(=O)[C@H](CC(N)=O)NC(=O)OCc1ccccc1 (some centres not stated) , give the reported log10 Ki.
Reply: 0.00
